- system-name: T1, His-tagged human TIGIT (human, UniProt Q495A1 22-141)
- T1 construct: SPR analyte; also called human TIGIT protein; not shown: His tag
- T1 sequence: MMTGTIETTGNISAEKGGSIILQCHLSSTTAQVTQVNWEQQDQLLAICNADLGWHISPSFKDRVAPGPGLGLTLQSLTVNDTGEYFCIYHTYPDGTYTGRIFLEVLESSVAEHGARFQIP
- assay-comment: SPR experiment 2, IgG from HEK293 supernatant captured
measured-metric: Kd (nM)
Field format: number, assumed nM, no unit text.

Look at this binder and give its reported Kd. humanized TIGIT-6 antibody 6VH6.M3 + 6VL1.M1 (antibody, V domains shown, Full-length IgG, tested as HEK293 supernatant) VH: QVQLVQSGAEVKKPGASVKVSCKASGYTITENTMHWVRQAPGQRLEWIGGINPNNGGTSYSQKFQGRATLTVDTSASTAYMELSSLRSEDTAVYYCTRSSYYRYDLDYWGQGTTVTVSS VL: DIQMTQSPSSLSASVGDRVTITCQASQDIKTALAWYQQKPGKAPKLLIYSASYRYTGVPSRFSGSGSGTDFTFTISSLQPEDIATYYCHQHYTTPWTFGGGTKLEIK
0.5

Ok, now huTIGIT-6-2 (antibody, human IgG1, kappa, V domains shown, Humanized IgG; also called 6VH6.M5 + 6VL1.M1) VH: QVQLVQSGAEVKKPGASVKVSCKASGYTITENTMHWVRQAPGQRLEWIGGINPNNAGTSYSQKFQGRATLTVDTSASTAYMELSSLRSEDTAVYYCTRSSYYRYDLDYWGQGTTVTVSS VL: DIQMTQSPSSLSASVGDRVTITCQASQDIKTALAWYQQKPGKAPKLLIYSASYRYTGVPSRFSGSGSGTDFTFTISSLQPEDIATYYCHQHYTTPWTFGGGTKLEIKR
0.71

And huTIGIT-6-1 (antibody, human IgG1, kappa, V domains shown, Humanized IgG; also called 6VH6.M4 + 6VL1.M1) VH: QVQLVQSGAEVKKPGASVKVSCKASGYTITENTMHWVRQAPGQRLEWIGGINPNQGGTSYSQKFQGRATLTVDTSASTAYMELSSLRSEDTAVYYCTRSSYYRYDLDYWGQGTTVTVSS VL: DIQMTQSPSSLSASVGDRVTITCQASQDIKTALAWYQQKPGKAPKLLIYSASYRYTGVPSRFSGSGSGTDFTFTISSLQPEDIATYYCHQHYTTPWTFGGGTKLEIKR ?
0.34

# iterate: TIGIT-6 chimeric antibody (antibody, human IgG1, kappa, V domains shown, also called 6VH + 6VL) VH: QVQLKQSGPELVKPGASVKISCKTSGYTITENTMHWVKQSHGKSLEWIGGINPNNGGTSYNQQFKGKATLTVDKSSSTAYMELRSLTSEDSAVYYCTRSSYYRYDLDYWGQGTTVTVSS VL: DIQMTQSHKFMSTSVGDRVSITCKASQDVKTALAWYQQKPGQSPKLLIYSASYRYTGVPDRFTGSGSGTDFTFTISSVQAEDLAVYYCHQHYTTPWTFGGGTKLEIKR
0.29

Note, next up: huTIGIT-6-3 (antibody, human IgG1, kappa, V domains shown, Humanized IgG; also called 6VH6.M6 + 6VL1.M1) VH: QVQLVQSGAEVKKPGASVKVSCKASGYTFTENAMHWVRQAPGQRLEWIGGINPNQGGTSYSQKFQGRATLTVDTSASTAYMELSSLRSEDTAVYYCTRSSYYRYDLDYWGQGTTVTVSS VL: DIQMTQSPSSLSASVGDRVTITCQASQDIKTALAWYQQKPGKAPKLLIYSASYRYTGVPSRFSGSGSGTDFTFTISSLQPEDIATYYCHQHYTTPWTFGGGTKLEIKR
0.64

huTIGIT-6-4 (antibody, human IgG1, kappa, V domains shown, Humanized IgG; also called 6VH6.M7 + 6VL1.M1) VH: QVQLVQSGAEVKKPGASVKVSCKASGYTFTENAMHWVRQAPGQRLEWIGGINPNNAGTSYSQKFQGRATLTVDTSASTAYMELSSLRSEDTAVYYCTRSSYYRYDLDYWGQGTTVTVSS VL: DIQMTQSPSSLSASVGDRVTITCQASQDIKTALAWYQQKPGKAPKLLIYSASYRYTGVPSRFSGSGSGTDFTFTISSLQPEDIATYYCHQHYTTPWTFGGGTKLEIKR , same question.
0.75
